- target_entity: T1, RBM15 RRM123 (UniProt Q96T37 170-529)
- T1 sequence: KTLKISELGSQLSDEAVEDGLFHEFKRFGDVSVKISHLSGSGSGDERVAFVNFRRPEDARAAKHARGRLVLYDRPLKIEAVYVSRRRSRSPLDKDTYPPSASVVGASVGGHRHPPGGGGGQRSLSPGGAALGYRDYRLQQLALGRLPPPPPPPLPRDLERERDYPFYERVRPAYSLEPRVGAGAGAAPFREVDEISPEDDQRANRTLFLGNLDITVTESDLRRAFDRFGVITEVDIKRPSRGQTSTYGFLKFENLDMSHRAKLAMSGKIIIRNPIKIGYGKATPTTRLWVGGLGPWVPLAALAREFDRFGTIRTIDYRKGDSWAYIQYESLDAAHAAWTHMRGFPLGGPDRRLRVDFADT
- measurement_description: filter binding
observable: pKd
Scale note: pKd = -log10(concentration in M).

Looking for the measured pKd of GGCCAACACUCUGGCCCAUCGGGGUGACGGCC (structured_RNA) [XIST A-repeat stem-loop (32nt)] , can you help?
7.10
